Measured Selectivity n/i values are reported for all entries that follow.
Target: murine iNOS (Mus musculus)
Assay: NOS enzyme inhibition assay, iNOS
Type: biochemical
Conditions: ratio Ki iNOS to Ki nNOS; Table 1
The answer should be written as a number, with no unit following it.

Worked examples, 5 molecules total:
molecule="Cc1ccnc(CCCCO[C@H]2CNC[C@H]2Cc2cc(C)cc(N)n2)c1 [22b]" experimental_value=16.5
molecule="Cc1cc(N)nc(C[C@@H]2CNC[C@@H]2OCCCCc2ccccn2)c1 [22a]" experimental_value=5.4
molecule="Cc1cc(N)nc(C[C@@H]2CNC[C@@H]2OCCCOc2ccc(F)c(C(F)(F)F)c2)c1 [25a]" experimental_value=5.8
molecule="COc1ccnc(CCCCO[C@H]2CNC[C@H]2Cc2cc(C)cc(N)n2)c1 [22c]" experimental_value=31.3
molecule=COc1ccnc(/C=C/CCO[C@H]2CNC[C@H]2Cc2cc(C)cc(N)n2)c1 experimental_value=7.1

IN: # query: Selectivity n/i | item Cc1cc(N)nc(C[C@@H]2CNC[C@@H]2OCCCOc2cc(F)cc(Cl)c2)c1 [25d] | system: murine iNOS (Mus musculus)
OUT: 90.6
